The following are reported IC50 results, target or system Lck (Homo sapiens).

O=C(CNc1cc(Cl)cc(Cl)c1)N1CC[C@@H]2CCN(c3ncnc4[nH]ccc34)[C@@H]2C1 | 100 to 999 nM
O=C(CNc1cc(Cl)cc(Cl)c1)N1CCC[C@@H](Nc2ncnc3[nH]ncc23)C1 | 1000 to 10000 nM
O=C(CNc1cc(Cl)cc(Cl)c1)N1CCC2CCN(c3ncnc4[nH]ncc34)C2C1 (stereo not shown) | 100 to 999 nM

Consider the record given below.
Sure, the documented IC50 for CN(c1ncnc2[nH]ccc12)[C@@H]1CCCN(C(=O)CNc2cc(Cl)cc(Cl)c2)C1 is 100 to 999 nM
